Values were extracted from ChEMBL document CHEMBL3046591.

- Test system: Klebsiella pneumoniae
- procedureDetails: Antibacterial activity against Klebsiella pneumoniae ATCC 13883 after 18 hr by agar well diffusion method
- Format: functional
observedProperty: inhibition zone (IZ) (mm)
Record the value in mm, omitting the unit from your answer.

O=c1n(S(=O)(=O)c2ccc(Br)cc2)nc(Cc2ccccc2)n1Cc1ccco1; 15
CCOC(=O)Cn1nc(C)n(Cc2ccco2)c1=O; 10
CCCS(=O)(=O)n1nc(Cc2ccccc2)n(Cc2ccco2)c1=O; 10
O=c1[nH]nc(Cc2ccccc2)n1Cc1ccco1; 10
Cc1nn(Cc2n[nH]c(=O)n2Cc2ccccc2)c(=O)n1Cc1ccco1; 10
Cc1nn(Cc2nnc(S)n2-c2ccccc2)c(=O)n1Cc1ccco1; 10
Cc1n[nH]c(=O)n1CC1CCCO1 (stereo unspecified); 8
Cc1n[nH]c(=O)n1Cc1ccco1; 10
Cc1nn(S(=O)(=O)c2ccc([N+](=O)[O-])cc2)c(=O)n1Cc1ccco1; 20
Cc1nn(S(=O)(=O)c2ccccc2)c(=O)n1Cc1ccco1; 20

The record that follows has no inhibition zone (IZ) shown yet.
Recorded inhibition zone (IZ) of O=c1n(S(=O)(=O)c2ccc(Cl)cc2)nc(Cc2ccccc2)n1Cc1ccco1 , please. 10

* * *

- Test system: Klebsiella aerogenes
- procedureDetails: Antibacterial activity against Enterobacter aerogenes ATCC 13048 after 18 hr by agar well diffusion method
- Format: functional
observedProperty: inhibition zone (IZ) (mm)
Record the value in mm, omitting the unit from your answer.

CCOC(=O)Cn1nc(C)n(Cc2ccco2)c1=O; 10
Cc1nn(Cc2n[nH]c(=O)n2Cc2ccccc2)c(=O)n1Cc1ccco1; 6
Cc1nn(Cc2nnc(S)n2-c2ccccc2)c(=O)n1Cc1ccco1; 6
Cc1n[nH]c(=O)n1CC1CCCO1 (stereo unspecified); 8
Cc1nn(S(=O)(=O)c2ccccc2)c(=O)n1Cc1ccco1; 15

The record that follows has no inhibition zone (IZ) shown yet.
Recorded inhibition zone (IZ) of O=c1[nH]nc(Cc2ccccc2)n1Cc1ccco1 , please. 10

* * *

- Test system: Listeria monocytogenes
- procedureDetails: Antibacterial activity against Listeria monocytogenes ATCC 43251 after 18 hr by agar well diffusion method
- Type: functional
Active and inactive are the calls of the source. No cut-off for these calls is given here.
observedProperty: inhibition zone (IZ)

Cc1nn(S(=O)(=O)c2ccccc2)c(=O)n1Cc1ccco1; 20 mm
Cc1n[nH]c(=O)n1CC1CCCO1 (stereo unspecified); 7 mm
Cc1n[nH]c(=O)n1Cc1ccco1; 6 mm
Cc1nn(Cc2n[nH]c(=O)n2Cc2ccccc2)c(=O)n1Cc1ccco1; inactive
Cc1nn(Cc2nnc(S)n2-c2ccccc2)c(=O)n1Cc1ccco1; inactive

The record that follows has no inhibition zone (IZ) shown yet.
Recorded inhibition zone (IZ) of O=c1n(S(=O)(=O)c2ccc(Cl)cc2)nc(Cc2ccccc2)n1Cc1ccco1 , please. inactive

* * *

- Test system: Bacillus cereus
- procedureDetails: Antibacterial activity against Bacillus cereus 702 Roma after 18 hr by agar well diffusion method; further: test concentration or dose not given here
- Assay type: functional
The source made the active and inactive calls. No cut-off for these calls is given here.
observedProperty: inhibition zone (IZ)

The cases that follow already have their inhibition zone (IZ) on record.
O=c1[nH]nc(Cc2ccccc2)n1Cc1ccco1; 8 mm
Cc1n[nH]c(=O)n1CC1CCCO1 (stereo unspecified); 15 mm
Cc1nn(Cc2n[nH]c(=O)n2Cc2ccccc2)c(=O)n1Cc1ccco1; 6 mm
O=c1n(S(=O)(=O)c2ccc(Br)cc2)nc(Cc2ccccc2)n1Cc1ccco1; inactive
CCCS(=O)(=O)n1nc(Cc2ccccc2)n(Cc2ccco2)c1=O; inactive

API: value(readout= inhibition zone (IZ), system= Bacillus cereus, query= Cc1n[nH]c(=O)n1Cc1ccco1 ) 8 mm

API: value(readout= inhibition zone (IZ), system= Bacillus cereus, query= Cc1nn(S(=O)(=O)c2ccc([N+](=O)[O-])cc2)c(=O)n1Cc1ccco1 ) 15 mm

API: value(readout= inhibition zone (IZ), system= Bacillus cereus, query= Cc1nn(S(=O)(=O)c2ccccc2)c(=O)n1Cc1ccco1 ) 15 mm

API: value(readout= inhibition zone (IZ), system= Bacillus cereus, query= O=c1n(S(=O)(=O)c2ccc(Cl)cc2)nc(Cc2ccccc2)n1Cc1ccco1 ) inactive

API: value(readout= inhibition zone (IZ), system= Bacillus cereus, query= CCOC(=O)Cn1nc(C)n(Cc2ccco2)c1=O ) 6 mm

API: value(readout= inhibition zone (IZ), system= Bacillus cereus, query= Cc1nn(Cc2nnc(S)n2-c2ccccc2)c(=O)n1Cc1ccco1 ) inactive
